B1: Kinesin-like protein KIF16B, residues 1213 to 1273; numbered along this chain, Q96L93 (parent)
chain: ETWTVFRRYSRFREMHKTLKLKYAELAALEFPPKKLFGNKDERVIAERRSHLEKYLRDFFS

- Variants of: B1
- experiment-description: abundance fitness (aPCA) (normalised: wild type 0, dead -1); higher = more abundant; growth selection in yeast, the domain comes from the species named
- condition-info: Homo sapiens
assay-endpoint: abundance fitness

>>> observed_measurement("ETWTVFRRYSRFREMHKTLKLKYAELAALEFPPKKLFGNKDERSIAERRSHLEKYLRDFFS")
0.351
>>> observed_measurement("ETWTVFRRYSRFREMHKTLKLKYAELAALEFPPKKLFGNKDERVIAERRRHLEKYLRDFFS")
-0.301
>>> observed_measurement("ETWTVFRRYSRFREMHKLLKLKYAELAALEFPPKKLFGNKDERVIAERRSHLEKYLRDFFS")
-0.247
>>> observed_measurement("ETWTVFRRYSRFREMHKTLKLKYAELAALEFPPKKLFGNKDERVIAERRSHLENYLRDFFS")
-0.127
>>> observed_measurement("ETWTVFRRYSRFREMHKTLKLKYAELAALEFPPKKLFGNKDERVIAERRSHLEPYLRDFFS")
-0.945
